Exercise: state measured inhibition (INH) for each of the compounds provided.
# System: NCI-H446
# runDescription: Antiproliferative activity against human NCI-H446 cells assessed as inhibition of cell growth at 0.5 uM after 48 hrs under hypoxic condition (200 uM CoCl2) by CCk-8 assay relative to control (reference value: 65.84%)
# Assay type: functional
Numbers only, in %.

Consider the following items and state reported inhibition (INH) for each.
1. COc1cc2c(Nc3ccc(C)c(Br)c3)ncnc2cc1OCCOCCNC(=O)Cn1cnc([N+](=O)[O-])n1
2. COc1cc2c(Nc3ccc(F)cc3Cl)ncnc2cc1OCCOCCNC(=O)Cn1cnc([N+](=O)[O-])n1
3. COc1cc2c(Nc3ccc(Br)cc3F)ncnc2cc1OCCNC(=O)Cn1cnc([N+](=O)[O-])n1
4. COc1cc2c(Nc3ccc(Br)cc3F)ncnc2cc1OCCOCCOCCNC(=O)Cn1cnc([N+](=O)[O-])n1

Ans.
1. 77.71
2. 80.31
3. 76.34
4. 78.81
